Provenance of the data: the NIST ThermoML archive (doi:10.1021/je200788z)

# Condition summary: 323.15 K; 101.33 kPa; Liquid; Sing-around technique in a fixed-path interferometer
Metric name: speed of sound (m/s)
Please respond with the number in m/s and leave the unit unwritten.

Need speed of sound, item CC(C)COC(=O)[C@@H](N)C(C)C.CCCCCCCCCCCCOS(=O)(=O)O [isobutyl L-valinate dodecyl sulfate]
1335.5

Need speed of sound, item CC(C)OC(=O)[C@@H]([NH3+])C(C)C.CCCCCCCCCCCCOS(=O)(=O)[O-]
1317.4

Need speed of sound, item CC(C)COC(=O)[C@H](C)[NH3+].CCCCCCCCCCCCOS(=O)(=O)[O-] [(S)-1-isobutoxy-1-oxopropan-2-aminium dodecyl sulfate]
1308.1

Need speed of sound, item CC(C)COC(=O)CC[C@H]([NH3+])C(=O)OCC(C)C.CCCCCCCCCCCCOS(=O)(=O)[O-]
1330.6

Need speed of sound, item CC(C)OC(=O)C[NH3+].CCCCCCCCCCCCOS(=O)(=O)[O-] [2-isopropoxy-2-oxoethan-1-aminium dodecyl sulfate]
1305

Need speed of sound, item CC(C)OC(=O)[C@@H]1CCC[NH2+]1.CCCCCCCCCCCCOS(=O)(=O)[O-] [(S)-2-(isopropoxycarbonyl)pyrrolidin-1-ium dodecyl sulfate]
1340.6

Need speed of sound, item CC(C)COC(=O)[C@@H]1CCC[NH2+]1.CCCCCCCCCCCCOS(=O)(=O)[O-] [(S)-2-(isobutoxycarbonyl)pyrrolidinium dodecyl sulfate]
1349.1

Need speed of sound, item CC(C)COC(=O)C[NH3+].CCCCCCCCCCCCOS(=O)(=O)[O-] [2-isobutoxy-2-oxoethan-1-aminium dodecyl sulfate]
1307.6

Need speed of sound, item CC(C)OC(=O)CC[C@H]([NH3+])C(=O)OC(C)C.CCCCCCCCCCCCOS(=O)(=O)[O-]
1295.3

* * *

Provide the recorded speed of sound for the entries that follow.
# Condition summary: 288.15 K; 101.33 kPa; Liquid; Sing-around technique in a fixed-path interferometer
Please respond with the number in m/s and leave the unit unwritten.

Need speed of sound, item CC(C)OC(=O)[C@@H]1CCC[NH2+]1.CCCCCCCCCCCCOS(=O)(=O)[O-] [(S)-2-(isopropoxycarbonyl)pyrrolidin-1-ium dodecyl sulfate]
1455.5

Need speed of sound, item CC(C)COC(=O)[C@@H](N)C(C)C.CCCCCCCCCCCCOS(=O)(=O)O [isobutyl L-valinate dodecyl sulfate]
1434.4

Need speed of sound, item CC(C)OC(=O)[C@@H]([NH3+])C(C)C.CCCCCCCCCCCCOS(=O)(=O)[O-]
1438.4

* * *

Provide the recorded refractive index for the entries that follow.
# Experiment notes: refractive index (Na D-line) (dimensionless)
# Condition summary: 298.15 K; 101.33 kPa; Liquid; Standard Abbe refractometry
// print number alone

Need refractive index, item CC(C)COC(=O)[C@H](C)[NH3+].CCCCCCCCCCCCOS(=O)(=O)[O-] [(S)-1-isobutoxy-1-oxopropan-2-aminium dodecyl sulfate]
1.452

Need refractive index, item CC(C)COC(=O)[C@@H](N)C(C)C.CCCCCCCCCCCCOS(=O)(=O)O [isobutyl L-valinate dodecyl sulfate]
1.4538

Need refractive index, item CC(C)OC(=O)[C@@H]([NH3+])C(C)C.CCCCCCCCCCCCOS(=O)(=O)[O-]
1.4527

Need refractive index, item CC(C)COC(=O)[C@@H]1CCC[NH2+]1.CCCCCCCCCCCCOS(=O)(=O)[O-] [(S)-2-(isobutoxycarbonyl)pyrrolidinium dodecyl sulfate]
1.4598

Need refractive index, item CC(C)OC(=O)CC[C@H]([NH3+])C(=O)OC(C)C.CCCCCCCCCCCCOS(=O)(=O)[O-]
1.4542

Need refractive index, item CC(C)OC(=O)[C@@H]1CCC[NH2+]1.CCCCCCCCCCCCOS(=O)(=O)[O-] [(S)-2-(isopropoxycarbonyl)pyrrolidin-1-ium dodecyl sulfate]
1.4542
